All figures here come from PubChem BioAssay (NCI).

System: MALME-3M melanoma
TEST: NCI tumour cell line growth inhibition, 48 h
VALUE_TYPE: TGI

Example cases with answers are listed next.
Ask: Any idea what its TGI is? The molecule is O=c1[nH]c(=S)[nH]c(-c2ccccc2)c1Cc1c(O)ccc2ccccc12
Reply: > 100 µM

Ask: # repeat for CSc1nc2c3ccccc3ccn2c1C(=O)N/N=C/c1ccccc1
Reply: > 95.1 µM

Ask: # repeat for N#Cc1c(-c2ccccc2)cc(-c2ccccc2)n(C2OCC(O)C(O)C2O)c1=S (configuration not stated)
Reply: 81 µM

Now for the molecule whose TGI we want.
Ask: Any idea what its TGI is? The molecule is C=CC(=O)N[C@@H](/C=C/C(=O)OCC)Cc1ccc(-c2cc(Cl)cc(Cl)c2)cc1
Reply: 34.1 µM

###

// reported TGI for each item listed
Tested on: OVCAR-3 ovarian
TEST: NCI tumour cell line growth inhibition, 48 h

Example cases with answers are listed next.
Ask: State its TGI on OVCAR-3 ovarian: Cc1nnc(N/N=C(/C(=O)C(C#N)c2ccc(Cl)cc2)C(C#N)c2ccc(Cl)cc2)n1N (stereo not drawn)
Reply: 48.8 µM

Ask: # repeat for CCCC(=O)OCOC(=O)N(C)N=Nc1ccc(C(=O)OCC)cc1
Reply: > 100 µM

Ask: # repeat for COc1c(CC=C(C)C)c(O)c(C(CC(C)C)c2c(O)c(CC=C(C)C)c(O)c(C(C)=O)c2O)c(O)c1C(C)=O (stereo not drawn)
Reply: 12.5 µM

Ask: # repeat for Nc1nc(C(=O)O)c(N=Nc2ccccc2)c(=O)[nH]1
Reply: > 100 µM

Ask: # repeat for O=S(=O)(NCCCNc1cc(-c2cn(-c3ccccc3)nc2-c2cccc(O)c2)ccn1)c1ccc(F)cc1
Reply: 14.9 µM

Further cases:
Ask: State its TGI on OVCAR-3 ovarian: O=[N+]([O-])c1cc(Cc2cc([N+](=O)[O-])c3cccnc3c2O)c(O)c2ncccc12
Reply: 6.71 µM

Ask: # repeat for Cc1ccc(S(=O)(=O)N2CCN(S(=O)(=O)c3ccc(C)cc3)CCN(S(=O)(=O)c3ccc(C)cc3)Cc3cc(Br)c(Br)cc3CN(S(=O)(=O)c3ccc(C)cc3)CC2)cc1
Reply: > 100 µM

Ask: # repeat for COc1ccc(NC/C=C/C(=C/COC(C)=O)OC(C)=O)cc1
Reply: 4.28 µM

Ask: # repeat for Cc1ccc(S(=O)(=O)N2CC(CCN)c3ccccc32)cc1 (stereo not drawn)
Reply: 26.2 µM

###

Tested on: HS 578T breast
TEST: NCI tumour cell line growth inhibition, 48 h; in the data active = GI50 below about 0.43 µM; inactive = the rest
The reply should be one of these categories: active, inactive

Ask: Assay outcome for Clc1nc(Cl)c2ncn(CCOCCn3cnc4c(Cl)nc(Cl)nc43)c2n1 : what was it?
Reply: active

Ask: # repeat for CCn1ccnc1C(=O)/C=C/c1ccc(CC(=O)Nc2ccc(F)cc2)cc1
Reply: inactive

Ask: # repeat for C=CCN(CC=C)C(=O)[C@H](CC)[C@@H]1CC[C@@H](C)[C@@H]([C@H](C)[C@@H](O)[C@@H](C)C(=O)[C@H](CC)C2O[C@]3(C=C[C@@H](O)[C@]4(CC[C@@](C)([C@H]5CC[C@](O)(CC)[C@H](C)O5)O4)O3)[C@H](C)C[C@@H]2C)O1 (stereo partly drawn)
Reply: inactive

###

Test system: HOP-92 NSCLC
TEST: NCI tumour cell line growth inhibition, 48 h
// reported TGI for each item listed
Numbers only here, please. The scale is µM.

Example cases with answers are listed next.
Ask: Any idea what its TGI is? The compound is NCc1ccc(-c2nc(-c3ccc(Cl)c(O)c3)c(-c3ccncc3)[nH]2)cc1
Reply: 19.6

Ask: # repeat for CC(=O)OCC(CC[CH2][Sn]([Cl])([Cl])[c]1ccccc1)OC(C)=O (stereo not given)
Reply: 33.4

Further cases:
Ask: Any idea what its TGI is? The compound is COc1ccccc1C1c2cc3c(cc2OC(N2CCCC2)C1C)OCO3 (stereo not given)
Reply: 20.6

###

Test system: SK-OV-3 ovarian
TEST: NCI tumour cell line growth inhibition, 48 h
Everything with TGI lower than 20 µM is Not satisfied; everything else, including exactly 20 µM, is Satisfied.

See these solved cases before continuing.
Ask: Reported TGI at or above 20 µM? Clc1ccc([I+]c2ccc(Cl)cc2Cl)c(Cl)c1
Reply: Not satisfied

Ask: # repeat for Nc1nc(-c2ccc(Cl)cc2)nc2c1sc(=S)n2-c1ccccc1
Reply: Not satisfied

Ask: # repeat for C[C@H](NC(=O)CNC(=O)CCCCCC(=O)NCC(=O)N[C@@H](C)C(=O)OCc1ccccc1)C(=O)OCc1ccccc1
Reply: Satisfied

Ask: # repeat for COCCOCOC(C)(C)[C@H](CCO)O[Si](c1ccccc1)(c1ccccc1)C(C)(C)C
Reply: Satisfied

Ask: # repeat for CNC(=O)N1N[C@H](c2ccccc2)[C@@H]1c1ccccc1
Reply: Satisfied

Further cases:
Ask: Reported TGI at or above 20 µM? COc1cc(/C=C/C(=O)O[C@H]2[C@H](O[C@@H]3O[C@@H](C)[C@H](O)[C@@H](O)[C@H]3O)[C@@H](O)[C@H](OCCc3ccc(O)c(O)c3)O[C@@H]2COC2OCC(O)(CO)C2O)ccc1O (stereo partly drawn)
Reply: Satisfied

Ask: # repeat for CCOC(=O)C(CCCNC(=O)OC(C)(C)C)N(Cc1ccc(OC)cc1OC)C(=O)CC(=O)CP(=O)(OCC)OCC (stereo not drawn)
Reply: Satisfied

###

Test system: OVCAR-5 ovarian
TEST: NCI tumour cell line growth inhibition, 48 h
VALUE_TYPE: TGI

Ask: Any idea what its TGI is? The compound is O/N=C1/CCCc2nonc21
Reply: > 100 µM

Ask: # repeat for O=C(c1c(O)cc(O)cc1O)C1Cc2ccccc21 (stereo unspecified)
Reply: > 100 µM

Ask: # repeat for Nc1[nH]c(=O)[nH]c(=O)c1Cc1cccc(Cl)c1
Reply: > 100 µM

Further cases:
Ask: Any idea what its TGI is? The compound is N#Cc1c(-c2ccccc2)cc(-c2ccccc2)n(C2OCC(O)C(O)C2O)c1=S (stereo unspecified)
Reply: 58.5 µM

Ask: # repeat for CC(=O)CC(=O)CCC(=O)Nc1cccc(C(F)(F)F)c1
Reply: > 100 µM

Ask: # repeat for Nc1ccc(-c2nc3ccc(F)cc3s2)cc1I
Reply: > 100 µM

Ask: # repeat for CN1CCC/C1=C1/C(=O)N(c2ccccc2)N=C1c1ccc[nH]1
Reply: > 100 µM

Ask: # repeat for O=C(O)CC12CC3CC(CC(O)(C3)C1)C2
Reply: > 100 µM

Ask: # repeat for CNC(=O)N1N[C@H](c2ccccc2)[C@@H]1c1ccccc1
Reply: > 100 µM

Ask: # repeat for COc1ccc(-n2c(C)nc3ccc(NC4OC(CO)C(O)C(O)C4O)cc3c2=O)cc1 (stereo unspecified)
Reply: > 100 µM

Ask: # repeat for COc1ccc(-c2[nH]c3ccccc3c2/C=C(\C#N)S(=O)(=O)c2ccccc2)cc1
Reply: > 100 µM

###

System: MDA-MB-435
TEST: NCI tumour cell line growth inhibition, 48 h
// reported TGI for each item listed
Numbers only here, please. The scale is µM.

Ask: Any idea what its TGI is? The compound is O=c1[nH]c(=S)[nH]c(-c2ccccc2)c1Cc1c(O)ccc2ccccc12
Reply: 93

Now for the compound whose TGI we want.
Ask: Any idea what its TGI is? The compound is COc1ccc(-c2c3c(N)c4c(nc3nc3c2c(C)nn3-c2ccccc2)CCCC4)cc1
Reply: 16.4

###

// reported TGI for each item listed
System: CAKI-1 renal
TEST: NCI tumour cell line growth inhibition, 48 h
Numbers only here, please. The scale is µM.

Ask: Any idea what its TGI is? The molecule is CC1CCC2(C)C(CC=C(C=O)C2(O)C=O)C12CO2 (stereo unspecified)
Reply: 11

Ask: # repeat for COC(=O)c1ccc(C=C(C#N)C#N)cc1
Reply: 74.7

Ask: # repeat for Cc1ccc(S(=O)(=O)N2CC(CCN)c3ccccc32)cc1 (stereo unspecified)
Reply: 23.8

Ask: # repeat for COC1=C(OC)C(=O)C(CCCCCCCCCCO)=C(C)C1=O
Reply: 29

Further cases:
Ask: Any idea what its TGI is? The molecule is CC1(C)[C@H](O)[C@H](F)C[C@@]2(C)Oc3ccc(C(=O)Nc4ccc5c(c4)NC(=O)C54CCN(CCCCC#N)CC4)cc3C[C@H]12
Reply: 38.5

Ask: # repeat for Clc1nc(Cl)c2ncn(CCOCCn3cnc4c(Cl)nc(Cl)nc43)c2n1
Reply: 0.453

Ask: # repeat for Cn1nc(-c2ccccc2)c(C(=O)/C=C/c2ccc(Cl)cc2)c(N2CCOCC2)c1=O
Reply: 19.7

Ask: # repeat for COc1cc(C(=O)/C=C/c2c(C(F)(F)F)nc3ccccn23)cc(OC)c1OC
Reply: 4.44

Ask: # repeat for O=C1C(Nc2cccc(O)c2)=C(Sc2ccccc2)C(=O)N1Cc1ccccc1
Reply: 55.2

Ask: # repeat for Cc1ccc(-n2c(-c3cc4c([nH]c5ccccc54)c(-c4cccc(O)c4)n3)n[nH]c2=S)cc1
Reply: 4.9
